Entry source: paper PMC4339548

# TEST_DETAILS: Urinary excretion of oral sugar probes
# Type: in vivo, human
# SETUP_CONDITIONS: 5-12 hour; percent excretion divided by creatinine clearance; mean ± SE
MEASURE: Percent urinary excretion of oral sugar probe corrected for CrCl

// known answers, use as guide
Entry OC[C@@H](O)[C@@H](O)[C@H](O)[C@H](O)CO — recorded Percent urinary excretion of oral sugar probe corrected for CrCl = 0.077

Entry OC[C@H]1O[C@@](CO)(O[C@H]2O[C@H](CO)[C@@H](O)[C@H](O)[C@H]2O)[C@@H](O)[C@@H]1O [Sucrose, α-D-glucopyranosyl-β-D-fructofuranoside] — recorded Percent urinary excretion of oral sugar probe corrected for CrCl = 0.006

a. OC[C@H]1O[C@H](O[C@]2(CCl)O[C@H](CCl)[C@@H](O)[C@@H]2O)[C@H](O)[C@@H](O)[C@H]1Cl
b. OC[C@H]1O[C@@H](O[C@@H]2[C@@H](CO)O[C@](O)(CO)[C@H]2O)[C@H](O)[C@@H](O)[C@H]1O
q: Field: lower Percent urinary excretion of oral sugar probe corrected for CrCl | Options: a / b Response format: the label of the selected entry.
a: a
